Data provenance: ChEMBL document CHEMBL4043142

Let's look at some compounds and their measured inhibition at 50 µg/mL.
Tested on: Mycobacterium tuberculosis
Experiment: Antitubercular activity against Mycobacterium tuberculosis H37Rv at 50 ug/ml after 5 days by microplate alamar blue assay relative to control
Format: functional
Conditions: 120 h

Chem Smiles	Units Text	inhibition at 50 µg/mL
NNC(=O)c1ccncc1	%	95
COc1cccc(-c2nc3ccccc3n2-c2ccc(Cl)cc2)c1	%	67
Cc1ccn2c(CN3CCOCC3)c(-c3ccc(F)cc3)nc2c1	%	95
CO[C@H]1/C=C/O[C@@]2(C)Oc3c(C)c(O)c4c(O)c(c(/C=N/N5CCN(C)CC5)c(O)c4c3C2=O)NC(=O)/C(C)=C\C=C\[C@H](C)[C@H](O)[C@@H](C)[C@@H](O)[C@@H](C)[C@H](OC(C)=O)[C@@H]1C	%	95
